- Applied Conditions: PAMPA, PAMPA_Papp_Avg (apparent permeability)
Where a SMILES comes first, the peptide text is derived from it. [ ]: non-standard residue; d: D form. NMeL = CN[C@@H](CC(C)C)C(=O)O; dNMeL = CN[C@H](CC(C)C)C(=O)O; dNMeA = CN[C@H](C)C(=O)O
Measured Parameter: Papp (nm/s)

Molecule	Val
CC(C)C[C@H]1NC(=O)[C@H](CC(C)C)N(C)C(=O)[C@@H](Cc2ccccc2)NC(=O)[C@@H](C)N(C)C(=O)[C@@H]2CCCN2C(=O)[C@H](C(C)C)NC(=O)[C@H](CC(C)C)N(C)C(=O)[C@@H](C)NC(=O)[C@@H]2CCCN2C(=O)[C@H]2CCCN2C1=O [Design D10.32, P*af*LlpPa*LV] (cyclo([dA][NMeL]VP[dNMeA][dF][NMeL][dL][dP]P))	18.6
CC[C@@H](C)[C@H]1NC(=O)[C@H](Cc2ccccc2)NC(=O)[C@@H](C)NC(=O)[C@@H](CC(C)C)N(C)C(=O)[C@@H]2CCCN2C(=O)[C@H](C)NC(=O)[C@H]2CCCN2C(=O)[C@@H]2CCCN2C(=O)[C@@H](Cc2ccccc2)NC1=O [Design D9.41, PpAP*laFif] (cyclo(AP[dNMeL][dA]F[dI][dF]P[dP]))	10.2
CC[C@H](C)[C@@H]1NC(=O)[C@@H](CC(C)C)NC(=O)[C@@H]2CCCN2C(=O)[C@@H]2CCCN2C(=O)[C@@H](CC(C)C)NC(=O)[C@@H]2CCCN2C(=O)[C@H]2CCCN2C(=O)[C@@H](C(C)C)NC(=O)[C@@H](C)N(C)C1=O [Design D9.14, PlI*avpPlP] (cyclo([dL]PP[dL]I[dNMeA][dV][dP]P))	4.21

----------
- Applied Conditions: PAMPA
Where a SMILES comes first, the peptide text is derived from it. [ ]: non-standard residue; d: D form. NMeF = CN[C@@H](Cc1ccccc1)C(=O)O; NMeL = CN[C@@H](CC(C)C)C(=O)O; dNMeL = CN[C@H](CC(C)C)C(=O)O
Property: PAMPA_Papp_Avg (apparent permeability); scope: individual compounds
Measured Parameter: PAMPA_Papp_Avg (apparent permeability) (×10⁻⁶ cm/s)

Compound	Measured Parameter	Val
C[C@H]1NC(=O)[C@@H](Cc2ccccc2)NC(=O)[C@H](Cc2ccccc2)N(C)C(=O)[C@H](Cc2ccccc2)N(C)C(=O)[C@@H](Cc2ccccc2)NC(=O)[C@H]2CCCN2C(=O)CNC(=O)[C@@H](C)NC(=O)[C@@H]2CCCN2C(=O)[C@@H](Cc2ccccc2)NC1=O [Design D10.62, aGpf*F*FfafP] (cyclo(G[dP][dF][NMeF][NMeF][dF][dA][dF]P[dA]))	PAMPA_Papp_Avg (apparent permeability)	4.23
CC(C)C[C@@H]1NC(=O)[C@@H](Cc2ccccc2)NC(=O)[C@@H](CC(C)C)N(C)C(=O)[C@@H]2CCCN2C(=O)[C@H](C)NC(=O)[C@@H](CC(C)C)N(C)C(=O)[C@@H]2CCCN2C(=O)[C@H](CC(C)C)N(C)C(=O)[C@H](CC(C)C)N(C)C(=O)[C@H](C(C)C)NC1=O [Design D10.20, P*lAP*lfLV*L*L] (cyclo(AP[dNMeL][dF]LV[NMeL][NMeL]P[dNMeL]))	PAMPA_Papp_Avg (apparent permeability)	2.59
